Test system: NCI-H226
method.notes: NCI tumour cell line growth inhibition, 48 h
Active and inactive are the calls of the source. Cut-off read from the data, not from the text of the source: active = GI50 up to about 1.1 µM and inactive = higher.
property.measured: GI50

See these solved cases before continuing.
compound: Cc1ccc(NC(=O)CCC(=O)C2CC(=O)CC/C2=N\NC(=O)c2cc3ccccc3cc2O)cc1C (stereo not drawn)
property.measured: GI50
measured.result: 23 µM (inactive)
//
compound: CCn1c(=O)nc2n(-c3ccccc3)c3ccccc3nc-2c1=O
property.measured: GI50
measured.result: 20 µM (inactive)

Could you now consider this next compound?
Which value of GI50 has been reported for O=c1n(-c2ccccc2)c(=O)n2n1C1Cc3ccccc3C12 (stereo not drawn) in the records? > 100 µM (inactive)

###

Entries and their measured GI50 follow.
Test system: LOX IMVI
method.notes: NCI tumour cell line growth inhibition, 48 h
The source made the active and inactive calls. Cut-off read from the data, not from the text of the source: active = GI50 up to about 1.1 µM and inactive = higher.

molecule: CC(=O)OCC1OC(n2c(-c3ccccc3)c(C(C)=O)c(-c3ccc(Cl)cc3)c(C#N)c2=S)C(OC(C)=O)C(OC(C)=O)C1OC(C)=O (centres undefined)
GI50: > 100 µM (inactive)
//
molecule: COc1ccc(C(OCC2OC3(COC(c4ccccc4)(c4ccc(OC)cc4)c4ccc(OC)cc4)C(Oc4nc(=O)ccn43)C2O)(c2ccccc2)c2ccc(OC)cc2)cc1 (centres undefined)
GI50: > 100 µM (inactive)
//
molecule: Cc1nc2ccc(S(=O)(=O)Nc3ccccc3Cl)cc2c(=O)n1NC(=O)CNc1ccccc1Cl
GI50: > 100 µM (inactive)
//
molecule: O=C(Cn1c(C(=O)/C=C/c2ccco2)nc2ccccc21)c1ccc(Cl)cc1
GI50: 13.8 µM (inactive)
//
molecule: COc1cccc(Nc2n[nH]c(NS(=O)(=O)c3cc(C)c(Cl)cc3S)n2)c1
GI50: > 100 µM (inactive)
//
molecule: c1ccc2c(c1)Oc1cccc3cccc-2c13
GI50: > 100 µM (inactive)
//
molecule: COc1ccc(/C=C/C(=O)c2c(-c3ccccc3)nn(C)c(=O)c2N2CC2C)cc1 (centres undefined)
GI50: 16.3 µM (inactive)
//
molecule: C/C=C(/I)CBr
GI50: 16.2 µM (inactive)

Which value of GI50 has been reported for "OC(CCN1CCCCC1)(c1ccccc1)c1ccccc1" in the records? > 100 µM (inactive)

Which value of GI50 has been reported for Nc1ccn(CCOC(c2ccccc2)P(=O)(O)O)c(=O)n1 (centres undefined) in the records? > 100 µM (inactive)

Which value of GI50 has been reported for "COc1cc2ccc(CC(N)=O)cc2cc1OC" in the records? > 100 µM (inactive)

Which value of GI50 has been reported for "Cc1nnc(Nc2ccc(Cl)cc2)o1" in the records? > 10 µM (inactive)

Which value of GI50 has been reported for "O=CN1CCN(C(=O)c2ccc(Cl)cc2Cl)C1=S" in the records? 32.3 µM (inactive)

Which value of GI50 has been reported for "CCOC(=O)c1cc2c(cn1)[nH]c1cccc(N)c12" in the records? > 100 µM (inactive)

Which value of GI50 has been reported for "O=C(Cn1c(-c2ccccc2)cc2ccccc21)N1CCCC1" in the records? > 100 µM (inactive)

Which value of GI50 has been reported for "O=C(O)c1ccc(NS(=O)(=O)Cc2ccccc2)cc1" in the records? > 100 µM (inactive)

Which value of GI50 has been reported for COc1cc2[nH]c3c(c2cc1OC)CCN[C@@]31CC[C@@]2(CC3c4c(cc(OC)c(O)c42)CCN3C)C[C@@H]1OC (some centres undefined) in the records? 18.8 µM (inactive)

Which value of GI50 has been reported for CCCCCCCCCCCOCCC1C(C(C)OCCN2CCCC2)OC2OC(C)(C)OC21 (centres undefined) in the records? 1.46 µM (inactive)

Which value of GI50 has been reported for "C(=N/Nc1ccccn1)/c1cccnc1" in the records? > 100 µM (inactive)

Which value of GI50 has been reported for COC(=O)C(CC(C)=O)CS(=O)(=O)CC(=O)C(=O)Nc1cccc([N+](=O)[O-])c1 (centres undefined) in the records? > 100 µM (inactive)

Which value of GI50 has been reported for CN(C)C1(N(C)C)Oc2c(c(=O)n(C)c(=O)n2C)C(c2ccccc2)C1(F)F (centres undefined) in the records? > 100 µM (inactive)

Which value of GI50 has been reported for "O=C(/C=C\c1ccccc1)N1CCc2ccccc2C1" in the records? 79.1 µM (inactive)

Which value of GI50 has been reported for CCCCCCOP(=O)(OCCCCCC)OC(C(=O)OC)C(F)(F)F (centres undefined) in the records? > 100 µM (inactive)

Which value of GI50 has been reported for CC(=O)OC1=CC(n2cc(F)c(=O)[nH]c2=O)OC(C)C1=O (centres undefined) in the records? 14.6 µM (inactive)

Which value of GI50 has been reported for "CCOC(=O)c1ncn2c1[nH]c(=O)c1ccccc12" in the records? > 100 µM (inactive)

Which value of GI50 has been reported for "Oc1cccc2cc(Cl)cnc12" in the records? 5.04 µM (inactive)
